# Target or test system: Cloned Human Dopamine D3 Receptors (Homo sapiens, UniProt P35462)
# Construct: expressed in transfected cells; membrane homogenate
# Sequence (P35462 whole entry): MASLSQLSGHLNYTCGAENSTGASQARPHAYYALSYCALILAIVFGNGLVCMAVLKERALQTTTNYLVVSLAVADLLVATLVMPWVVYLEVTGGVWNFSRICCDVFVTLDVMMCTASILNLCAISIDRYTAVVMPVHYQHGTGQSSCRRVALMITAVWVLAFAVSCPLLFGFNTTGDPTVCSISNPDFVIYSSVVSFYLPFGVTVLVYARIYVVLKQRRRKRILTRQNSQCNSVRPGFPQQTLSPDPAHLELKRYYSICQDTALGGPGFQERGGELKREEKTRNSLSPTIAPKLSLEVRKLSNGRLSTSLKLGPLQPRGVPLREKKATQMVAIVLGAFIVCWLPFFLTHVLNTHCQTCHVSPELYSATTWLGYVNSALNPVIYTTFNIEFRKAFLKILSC
# Assay info: [N-Methyl-3H]Spiroperidol binding to cloned human dopamine D3 receptors
# Condition info: read-out: D3 Ki
Reported log10 of Ki values for the following compounds.
Measured endpoint: log10 of Ki (log10 of the value in nM)

{"Compound": "O=C(NC1CCNCC1)[C@@H]1C[C@H]1CN1CCN(c2csc3cc(C(F)(F)F)ccc23)CC1", "log10 of Ki": 0.43}
{"Compound": "COc1ccc2c(c1)c(N1CCN(C[C@@H]3C[C@H]3C(=O)N3CCC(CCN4CCCC4)CC3)CC1)nn2C", "log10 of Ki": 1.98}
{"Compound": "Cn1nc(C2CCN(C[C@@H]3C[C@H]3C(=O)NCCCN3CCCCC3)CC2)c2cccc(C(F)(F)F)c21", "log10 of Ki": 2.51}
{"Compound": "CC[C@H]1CC[C@H](NC(=O)[C@@H]2C[C@H]2CN2CCN(c3cccc(C(F)(F)F)c3)CC2)CC1", "log10 of Ki": 0.23}
{"Compound": "O=C(NCCCn1ccnc1)[C@@H]1C[C@H]1CN1CCC(c2csc3cc(C(F)(F)F)ccc23)CC1", "log10 of Ki": 0.55}
{"Compound": "Cn1nc(C2CCN(C[C@@H]3C[C@H]3C(=O)NCCCn3ccnc3)CC2)c2cccc(C(F)(F)F)c21 [A002329093]", "log10 of Ki": 2.61}
{"Compound": "O=C(NC1CCN(Cc2ccc(F)c(F)c2)CC1)[C@@H]1C[C@H]1CN1CCC(c2noc3ccsc23)CC1", "log10 of Ki": 0.03}

----------
# Target or test system: Cloned Human Dopamine D3 Receptors (Homo sapiens, UniProt P35462)
# Construct: expressed in transfected cells; membrane homogenate
# Assay info: [N-Methyl-3H]Spiroperidol binding to cloned human dopamine D3 receptors
# Condition info: d3Ki, Table 2; unit inferred

{"Molecule": "C[C@H]1CC[C@H](NC(=O)[C@H]2C[C@@H]2CN2CCN(c3noc4ccsc34)CC2)CC1", "Target or test system": "Cloned Human Dopamine D3 Receptors (Homo sapiens, UniProt P35462)", "Measure unit": "nM", "Ki": 245}
{"Molecule": "CC1CCC(NC(=O)C2CC2CN2CCN(c3noc4ccsc34)CC2)CC1 (stereo not drawn)", "Target or test system": "Cloned Human Dopamine D3 Receptors (Homo sapiens, UniProt P35462)", "Measure unit": "nM", "Ki": 6.07}
{"Molecule": "C[C@H]1CC[C@H](NC(=O)[C@@H]2C[C@H]2CN2CCN(c3noc4ccsc34)CC2)CC1 [817892A]", "Target or test system": "Cloned Human Dopamine D3 Receptors (Homo sapiens, UniProt P35462)", "Measure unit": "nM", "Ki": 3.02}

----------
Reported pKi values for the following compounds.
# Target or test system: Cloned Human Dopamine D3 Receptors (Homo sapiens, UniProt P35462)
# Construct: expressed in transfected cells; membrane homogenate
# Assay info: [N-Methyl-3H]Spiroperidol binding to cloned human dopamine D3 receptors
# Condition info: Table 2 part the 10th table; read-out: d3Ki
pKi: −log10 of the molar value.

{"Compound": "CCOC(=O)C1CCN(C(=O)[C@@H]2C[C@H]2CN2CCN(c3csc4cc(C(F)(F)F)ccc34)CC2)CC1", "pKi": 7.34}
{"Compound": "O=C([C@@H]1C[C@H]1CN1CCN(c2csc3cc(C(F)(F)F)ccc23)CC1)N1CCCC(O)C1 (some centres unmarked)", "pKi": 7.88}
{"Compound": "CC1CCCN1C(=O)CCCN1CCN(c2csc3cc(F)ccc23)CC1Cc1ccccc1 (centres unmarked)", "pKi": 7.09}
{"Compound": "O=C(CCCN1CCN(c2csc3cc(F)ccc23)CC1Cc1ccccc1)N1CCC(N2CCCC2)CC1 (centres unmarked)", "pKi": 7.29}
{"Compound": "O=C([C@@H]1C[C@H]1CN1CCCN(c2csc3cc(F)ccc23)CC1)N1CCC(N2CCCC2)CC1", "pKi": 8.57}
{"Compound": "CC1CCCN(C(=O)CCCN2CCCN(c3csc4cc(F)ccc34)CC2)C1 (centres unmarked)", "pKi": 8.67}
{"Compound": "O=C([C@@H]1CCC[C@H]1N1CCN(c2csc3cc(F)ccc23)CC1)N1CCCCC1", "pKi": 8.27}
{"Compound": "CC1CCCN(C(=O)[C@@H]2C[C@H]2CN2CCCN(c3csc4cc(F)ccc34)CC2)C1 (some centres unmarked)", "pKi": 8.55}

# credit: patent EP1935887A1
